Measured values drawn from paper PMC5050560 for this set.

molecular target: cdPadR1 (Clostridium difficile R20291, UniProt A0A9R0CDW8 1-109); test: EMSA; 20 mM Tris pH 8.0, 120 mM KCl, 10 mM MgCl2, 5 mM DTT, 12.5% glycerol, 125 ug/mL heparin, room temperature; conditions: protein: recombinant; tags: N-terminal Strep II; chain copies: 2
measurement name: binding result

Recorded binding result, per entry:
# binder, binding result
rows = [
    ("Pr102 (dsDNA) DNA 1: TTTTAACCCTCCTAAAATTTATCATTATATAAGTAACATACCCAATTTTG DNA 2: CAAAATTGGGTATGTTACTTATATAATGATAAATTTTAGGAGGGTTAAAA", "binds"),
    ("Pr43 (dsDNA) DNA 1: CTATGTATTATTATAGTAAATATAAGTACTATACATTA DNA 2: TAATGTATAGTACTTATATTTACTATAATAATACATAG", "no binding"),
    ("Pr69 (dsDNA) DNA 1: ATGCTATAATTTTATCACTATGGTACTATATTACAATAATGCACTTTTTTGTAATATAGTATCTAAAAAGATACTTTAAAATAAATAAAGGAGCTCAAAA DNA 2: TTTTGAGCTCCTTTATTTATTTTAAAGTATCTTTTTAGATACTATATTACAAAAAAGTGCATTATTGTAATATAGTACCATAGTGATAAAATTATAGCAT", "binds"),
    ("Pr41 (dsDNA) DNA 1: TACTATACATTATAGAGTAGTA DNA 2: TACTACTCTATAATGTATAGTA", "binds"),
    ("Pr88 (dsDNA) DNA 1: GTACTATGTATTATTATAGTAA DNA 2: TTACTATAATAATACATAGTAC", "no binding"),
    ("Pr70 (dsDNA) DNA 1: TTATTTACCCCCTATTGTTTTATTAGGCTAAGTTGATGATTTATTTAACCTATGCTATAATTTTATCACTATGGTACTATATTACAATAATGCACTTTTT DNA 2: AAAAAGTGCATTATTGTAATATAGTACCATAGTGATAAAATTATAGCATAGGTTAAATAAATCATCAACTTAGCCTAATAAAACAATAGGGGGTAAATAA", "binds"),
    ("Pr35 (dsDNA) DNA 1: CATTTAAAGAATGGGATATTATGTAATTGTAGATTATGTAGGTTTAAATTATTTATTTTTGTTTTAGCAAATTCTATGAATAGAAGGGGTTTGATTATGG DNA 2: CCATAATCAAACCCCTTCTATTCATAGAATTTGCTAAAACAAAAATAAATAATTTAAACCTACATAATCTACAATTACATAATATCCCATTCTTTAAATG", "binds"),
]

Here's the next entry for you.
q: Indicate its recorded binding result; the binder in question is Pr104 (dsDNA) DNA 1: AGGTGAATGAAACAAAAGATGTCATGATAAGTCATGTAAAACAATAGTTT DNA 2: AAACTATTGTTTTACATGACTTATCATGACATCTTTTGTTTCATTCACCT
a: binds
